- Tested on: CDK3;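 further: KINOMEscan kinase panel screen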
- assay-conditions: concentration: 1 μM, replicates: in singlicate; n = 1
Reported %Inh values for the following molecules.
Give your result in % as a bare value.

Please review the following examples before continuing.
INSERT INTO assay_data (smiles_text, observed) VALUES
  ('COc1cc(Nc2ccnc3ccc(C(F)(F)F)cc23)cc(OC)c1OC', 16),
  ('Cn1c(=O)c(F)c(Nc2ccc(I)cc2F)c2c(=O)n(OC[C@H](O)CO)cnc21', 38),
  ('CCc1nc(-c2cccc(C)c2)c(-c2ccncc2)s1', 8),
  ('Fc1cccc(CSc2nnc(-c3ccc4c(c3)CCO4)o2)c1', 0),
  ('COc1cccc(C2=C(Nc3cccc(C(=O)O)c3)C(=O)NC2=O)c1', 9),
  ('COc1cc2ncn(-c3cc(OCc4ccncc4Br)c(C(N)=O)s3)c2cc1OC', 5),
  ('COc1ccc(-c2cc3c(C)nc(N)nc3n([C@H]3CC[C@H](OCCO)CC3)c2=O)cn1', 0),
  ('OCCCNc1nccc(-c2c(-c3cccc(C(F)(F)F)c3)nn3cc(C(F)(F)F)ccc23)n1', 1);

Kindly note: CDK3, COc1cc2nccc(Nc3cccc(Oc4ccccc4)c3)c2cc1OC.Cl , %Inh value reported: 0
